Listed here: items and their measured log10 AUC.
Assay: AUC in CD-1 mouse at 5 mg/kg, ip administered as single dose
Format: ADME, organism-based
Details: in vivo
Heads up: the numbers are on a log10 scale; they represent AUC in µM·h.

Compound: CCO/N=C/c1ccc(OCCCCCN2CCN(c3ccnc(N)c3)S2(=O)=O)cc1
log10 AUC: 0.39
//
Compound: CCO/N=C1\CCc2cc(OCCCCCN3CCN(c4ccnc(N)c4)S3(=O)=O)ccc21
log10 AUC: 0.59
//
Compound: CCO/N=C/c1ccc(OCCC(C)CCN2CCN(c3ccnc(N)c3)C2=O)cc1 (configuration not stated)
log10 AUC: 0.23
//
Compound: O=C1CN(c2ccncc2)CCN1CCCCCOc1ccc(-c2ccc(Cl)cc2)cc1
log10 AUC: 0.95
//
Compound: O=S1(=O)N(CCCCCOc2ccc(-c3ccc(Cl)cc3)cc2)CCN1c1ccncc1
log10 AUC: 0.95

[in] Need log10 AUC, item O=C1N(CCCCC2CCc3cc(-c4ccc(Cl)cc4)ccc3O2)CCN1c1ccncc1 (configuration not stated)
[out] 1.37

[in] Need log10 AUC, item O=C1N(CCCCCOc2ccc(-c3ccc(Cl)cc3)cc2)CCN1c1ccncc1
[out] 0.63
